The measured values listed here are drawn from ChEMBL document CHEMBL3046496.

# test_details: Half life in culture medium of Echinochloa esculenta after 7 days by HPLC method
# Format: ADME, organism-based
Listed compounds paired with reported half-life
recorded_metric: half-life (h)

[[record]]
molecular_string = "O=C1O/C(=N\\c2ccc(OCc3ccc(Cl)cc3)cc2)C2=C1CCCC2"
recorded_metric = "half-life"
unit = "h"
result = 57.6

[[record]]
molecular_string = "C#CCOc1cc(/N=C2\\OC(=O)C3=C2CCCC3)c(F)cc1Cl"
recorded_metric = "half-life"
unit = "h"
result = 14.4

[[record]]
molecular_string = "O=C1O/C(=N\\c2ccc(Cl)cc2)C2=C1CCCC2"
recorded_metric = "half-life"
unit = "h"
result = 19.2

[[record]]
molecular_string = "Cc1cc(Cl)ccc1/N=C1\\OC(=O)C2=C1CCCC2"
recorded_metric = "half-life"
unit = "h"
result = 7.2


----------
# test_details: Drug hydrolysis in culture medium of Echinochloa esculenta assessed as compound degradation measured at zero period in culture experiment by HPLC method
# Assay type: ADME, organism-based
# conditions: read-out: Drug degradation
recorded_metric: degraded

[[record]]
molecular_string = "Cc1cc(Cl)ccc1/N=C1\\OC(=O)C2=C1CCCC2"
recorded_metric = "degraded"
result = "33%"

[[record]]
molecular_string = "O=C1O/C(=N\\c2ccc(Cl)cc2)C2=C1CCCC2"
recorded_metric = "degraded"
result = "10%"

[[record]]
molecular_string = "C#CCOc1cc(/N=C2\\OC(=O)C3=C2CCCC3)c(F)cc1Cl"
recorded_metric = "degraded"
result = "32%"

[[record]]
molecular_string = "O=C1O/C(=N\\c2ccc(Cl)cc2F)C2=C1CCCC2"
recorded_metric = "degraded"
result = "68%"

[[record]]
molecular_string = "O=C1O/C(=N\\c2ccc(OCc3ccc(Cl)cc3)cc2)C2=C1CCCC2"
recorded_metric = "degraded"
result = "5%"

